Origin of the recorded values: patent US11780849B2

# system-name: UniProtKB P22413
# Sequence (P22413 98-925): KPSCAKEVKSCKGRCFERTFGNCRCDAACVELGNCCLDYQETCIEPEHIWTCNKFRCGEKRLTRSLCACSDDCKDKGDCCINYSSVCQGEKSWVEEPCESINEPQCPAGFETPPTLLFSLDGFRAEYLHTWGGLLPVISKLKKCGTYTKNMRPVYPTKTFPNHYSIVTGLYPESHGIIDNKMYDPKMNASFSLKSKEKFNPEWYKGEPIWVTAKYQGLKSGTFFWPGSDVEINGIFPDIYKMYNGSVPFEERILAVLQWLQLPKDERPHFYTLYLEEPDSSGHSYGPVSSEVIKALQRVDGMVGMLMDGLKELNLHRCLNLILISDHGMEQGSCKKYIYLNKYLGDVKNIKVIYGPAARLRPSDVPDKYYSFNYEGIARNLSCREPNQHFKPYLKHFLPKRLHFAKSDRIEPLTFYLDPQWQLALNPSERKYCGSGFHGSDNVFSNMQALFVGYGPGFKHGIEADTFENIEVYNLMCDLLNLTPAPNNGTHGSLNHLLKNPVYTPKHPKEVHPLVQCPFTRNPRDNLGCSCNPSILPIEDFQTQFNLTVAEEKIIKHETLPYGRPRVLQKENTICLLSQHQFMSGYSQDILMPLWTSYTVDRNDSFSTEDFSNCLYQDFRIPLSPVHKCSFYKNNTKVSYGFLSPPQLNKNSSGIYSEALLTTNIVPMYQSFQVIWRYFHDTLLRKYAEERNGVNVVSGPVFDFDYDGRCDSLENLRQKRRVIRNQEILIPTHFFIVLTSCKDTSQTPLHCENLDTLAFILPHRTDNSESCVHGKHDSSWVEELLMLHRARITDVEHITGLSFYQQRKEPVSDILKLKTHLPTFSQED
# experiment-summary: Assay 2: inhibition of ENPP1 hydrolysis of 2′,3′-cGAMP (AMP-Glo, […] enzyme)
# condition: read-out: Assay 2 (KI); inhibition of ENPP1 hydrolysis of 2′,3′-cGAMP; no unit in Table 18 (Table 17 legend for this assay uses nM)
List of log10 of Ki values.
property-measured: log10 of Ki (log10 of the value in nM)

# compound, property-measured, val
records = [
    ("COc1cc2nccc(Oc3ccc([S@](=N)(=O)C4CC4)cc3)c2cc1F [Compound 120b]", "log10 of Ki", 0.68),
    ("COc1cccc2c(N3CCC(C[S@](=N)(=O)C4CC4)CC3)c(C#N)cnc12 [Compound 189b]", "log10 of Ki", -2.12),
    ("COc1cc2ncnc(N3CCC(CN[S@](C)(=N)=O)CC3)c2cc1OC [Compound 94b]", "log10 of Ki", 0.95),
    ("COc1cc2nccc(OC[C@H]3CCN([S@](C)(=N)=O)C3)c2cc1F [Compound 230a]", "log10 of Ki", 1.04),
    ("COc1cccc2c(N3CC[C@H](C[S@@](C)(=N)=O)C3)ncnc12 [Compound 238a]", "log10 of Ki", 1.82),
    ("COc1ccc2c(OCc3cccc(S(C)(=N)=O)c3)ncnc2c1 (stereo not shown) [Compound 174]", "log10 of Ki", 0.72),
    ("COc1cccc2c(N3CCC4(C3)CN([S@@](C)(=N)=O)C4)ncnc12 [Compound 223b]", "log10 of Ki", 1.28),
    ("COc1cc2ncnc(N3CCC4(CC3)CCN([S@@](C)(=N)=O)C4)c2cc1OC [Compound 54a]", "log10 of Ki", -2.12),
    ("COc1cc2ncc(C#N)c(Oc3ccc([S@](C)(=N)=O)cc3)c2cc1F [Compound 44b]", "log10 of Ki", 2.54),
    ("COc1cc2nncc(N3CCC4(CC3)CCN([S@@](C)(=N)=O)C4)c2cc1OC [Compound 211b]", "log10 of Ki", -0.30),
    ("COc1ccc2c(N3CCC4(CC3)CCN([S@](C)(=N)=O)C4)ccnc2c1 [Compound 55a]", "log10 of Ki", -1.05),
    ("COc1ccc2c(O[C@H](C)c3cccc([S@](C)(=N)=O)c3)ccnc2c1 [Compound 178b]", "log10 of Ki", 1.53),
    ("COc1cccc2c(N3CC4(CCN([S@@](C)(=N)=O)C4)C3)c(C#N)cnc12 [Compound 222a]", "log10 of Ki", -1.47),
    ("COc1ccc2c(OCc3ccc([S@@](C)(=N)=O)cc3)ccnc2c1 [Compound 75a]", "log10 of Ki", -0.42),
    ("COc1cc2ncc(C#N)c(Oc3ccc([S@@](C)(=N)=O)cc3)c2cc1F [Compound 44a]", "log10 of Ki", 0.00),
    ("COc1ccc2c(OCc3cccc([S@@](C)(=N)=O)c3)ccnc2c1 [Compound 133a]", "log10 of Ki", -1.26),
    ("COc1cc2nccc(N3CCC4(CC3)CCN([S@@](C)(=N)=O)C4)c2cc1F [Compound 205b]", "log10 of Ki", -2.24),
    ("COc1cc2nccc(N3CCC4(CC3)CCN([S@](=N)(=O)C3CC3)C4)c2cc1F [Compound 218b]", "log10 of Ki", 0.18),
    ("COc1cc2nccc(N3CCC4(CC3)CCN([S@@](C)(=N)=O)C4)c2cc1Cl [Compound 156a]", "log10 of Ki", -1.80),
    ("COc1cc2nncc(N3CCC4(CC3)CCN([S@@](C)(=N)=O)C4)c2cc1Cl [Compound 219b]", "log10 of Ki", 0.30),
    ("COc1ccc2c(OCc3ccc([S@](C)(=N)=O)cc3)ccnc2c1 [Compound 75b]", "log10 of Ki", 1.99),
    ("COc1cccc2c(N3CCC(O)(C[S@@](C)(=N)=O)CC3)ncnc12 [Compound 185a]", "log10 of Ki", -1.89),
    ("COc1cc2nccc(N3CCC4(CC3)CCN([S@@](C)(=N)=O)C4)c2cc1OC [Compound 208a]", "log10 of Ki", 0.04),
    ("COc1cc2ncnc(N3CC4(CC(C[S@](C)(=N)=O)C4)C3)c2cc1OC [Compound 237b]", "log10 of Ki", -2.30),
    ("COc1cc2nccc(N3CCC(CC[S@](C)(=N)=O)CC3)c2cc1Cl [Compound 141b]", "log10 of Ki", 1.49),
    ("COc1cc2nccc(-c3ccc4c(c3)CN([S@](C)(=N)=O)CC4)c2cc1OC [Compound 161b]", "log10 of Ki", -0.19),
    ("COc1cc2nccc(N3CCC4(CC3)CCN([S@@](=N)(=O)C3CC3)C4)c2cc1F [Compound 218a]", "log10 of Ki", -2.11),
    ("COc1cc2nccc(N3CCC4(CC3)CCN([S@](C)(=N)=O)C4)c2cc1F [Compound 205a]", "log10 of Ki", 0.70),
    ("COc1cc2ncnc(N3CCC4(CC3)CCN([S@](C)(=N)=O)C4)c2cc1OC [Compound 54b]", "log10 of Ki", 0.11),
    ("COc1cccc2c(N3CC[C@@H](C[S@](C)(=N)=O)C3)ncnc12 [Compound 239a]", "log10 of Ki", -0.37),
    ("COc1ccc2c(Oc3ccc([S@@](=N)(=O)C4CC4)cc3)ccnc2c1 [Compound 60a]", "log10 of Ki", -1.00),
    ("COc1cc2nccc(OC[C@H]3CCN([S@@](C)(=N)=O)C3)c2cc1F [Compound 230b]", "log10 of Ki", -0.42),
    ("COc1ccc2c(-c3ccc4c(c3)CN([S@@](C)(=N)=O)CC4)ccnc2c1 [Compound 52b]", "log10 of Ki", 0.54),
]
